System: XIP peptide (Xip251-270) binding
assay method text: small-molecule binders of XIP peptide, primary screen, biochemical, small-molecule microarray, fluorescence 635/667 nm, 0.1 µg/mL protein (AID 1182)
test context: fluorescent protein binding, 635 nm, higher = more signal, called active from +8 up or from −8 down
Decide by composite z-score: equal to or exceeding 0.4 means Y, less means N.

[[record]]
molecule = "O=C(NCC(F)(F)F)[C@@H]1c2ccccc2C(=O)N(Cc2ccc(OC(F)(F)F)cc2)[C@H]1c1ccc(CO)cc1"
assay_target = "XIP peptide (Xip251-270) binding"
group_label = "N"

[[record]]
molecule = "COCCOC(=O)N1C(=O)[C@@]2(c3ccccc31)[C@H](C(=O)N1CCN(c3ncccn3)CC1)[C@H]1C(=O)O[C@H](c3ccccc3)[C@H](c3ccccc3)N1[C@@H]2c1ccc(O)cc1"
assay_target = "XIP peptide (Xip251-270) binding"
group_label = "Y"

[[record]]
molecule = "C[C@@H]1NC(=O)[C@@]23C(=O)N[C@@H](Cc4ccccc4)C2[C@H](C)[C@@]2(C)O[C@H]2C3/C=C/C/C=C\\CNC(=O)[C@@H]2CCCN2C1=O (some centres not stated)"
assay_target = "XIP peptide (Xip251-270) binding"
group_label = "N"

[[record]]
molecule = "C=CC1c2cc(O)c(OC)cc2CCN1Cc1cc2c(cc1Br)OCO2 (configuration not stated)"
assay_target = "XIP peptide (Xip251-270) binding"
group_label = "Y"

[[record]]
molecule = "COCCCNC(=O)[C@@]1(Cc2ccccc2CN=[N+]=[N-])N=C(c2ccc(OCCCO)cc2)O[C@H]1c1ccccc1"
assay_target = "XIP peptide (Xip251-270) binding"
group_label = "Y"

[[record]]
molecule = "O=C1NC(=O)C2C1C=CC(C(O)CCc1ccccc1)N2Nc1ccc(Cl)cc1Cl (configuration not stated)"
assay_target = "XIP peptide (Xip251-270) binding"
group_label = "N"

[[record]]
molecule = "COc1ccc([Si](C)(C)[C@@H]2[C@@H](CCn3cc([C@H](O)c4ccccc4)nn3)O[C@]3(C(=O)N(Cc4ccc(N5CCC5=O)cc4)c4ccccc43)[C@H]2C)cc1"
assay_target = "XIP peptide (Xip251-270) binding"
group_label = "N"


---

assay method text: mitochondrial membrane potential change in A549 cells, profiling panel, cell-based, JC-1 fluorescence, basal, 24 h, 100 nL (AID 1138);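 further: A549 lung adenocarcinoma cells under basal conditions with no added stimulus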
test context: higher = more signal
molecules and their reported z-score
property: z-score

[[record]]
molecule = "COc1ccc(NC(=O)O[C@H]2[C@H](OC(=O)Nc3ccccc3)[C@H](OC(=O)Nc3ccccc3)[C@@H](OC)O[C@@H]2CO)cc1"
recorded_number = 0.732

[[record]]
molecule = "C=CCOC(=O)[C@H]1[C@@H]2C(=O)O[C@@H](c3ccccc3)[C@@H](c3ccccc3)N2[C@@H](c2ccc(OCCOC(=O)[C@H]3C[C@H]4C(=O)N[C@@H](CC(C)C)C(=O)N4[C@H]3c3cccc(OCCO)c3)cc2)[C@]12C(=O)Nc1ccc(I)cc12"
recorded_number = -0.175

[[record]]
molecule = "C=CCC(OC(C)=O)[C@@H]1[C@@H](N(Cc2ccc(-c3ccccc3)cc2)C(=O)Cc2ccc(F)cc2)c2cc(OCCCO)ccc2N1C(=O)Cc1ccc(OC)cc1 (stereo partly specified)"
recorded_number = 0.626

[[record]]
molecule = "C=C(/C(=C/C[C@H](OC(C)=O)c1ccccc1OCCO)c1cc(C(=O)OC)ccc1OC)C(C)C"
recorded_number = -0.139

[[record]]
molecule = "C[C@@H]1NC(=O)[C@@]23C(=O)N[C@@H](Cc4ccccc4)C2[C@H](C)[C@@]2(C)O[C@H]2C3/C=C/C/C=C\\CNC(=O)[C@@H]2CCCN2C1=O (stereo partly specified)"
recorded_number = 0.0238

[[record]]
molecule = "COC(=O)[C@@]1(Cc2ccc(OC)cc2)[C@@H]2C(=CC(=O)[C@H]2CC(=O)C(=O)N(C)C)CN1C(=O)c1ccccc1"
recorded_number = 0.437


---

assay method text: A549 cell viability effects, profiling panel, calcein-AM fluorescence, 48 h, basal (AID 1162)
test context: higher = more signal
property: z-score

[[record]]
compound = "COc1ccc(CCN2C(=O)[C@@]3(Cc4ccccc42)c2ccccc2C(=O)N(Cc2ccccc2OC)[C@H]3c2ccc(CO)cc2)cc1"
recorded_number = -0.391

[[record]]
compound = "C=C(C)[C@@H]1CC=C(C(O)C2C=CC3C(=O)N(c4ccccc4)C(=O)C3N2Nc2ccccc2F)CC1 (some centres undefined)"
recorded_number = -0.644

[[record]]
compound = "CC(C)(C)OC(=O)CC[C@]1(C(=O)NCc2ccccc2)N=C(c2ccc(OCCCO)cc2)O[C@H]1c1ccccc1CN=[N+]=[N-]"
recorded_number = 0.858

[[record]]
compound = "COc1ccc(CCNC(=O)[C@@H]2c3ccccc3C(=O)N(Cc3cc(C(F)(F)F)cc(C(F)(F)F)c3)[C@H]2c2ccc(CO)cc2)cc1"
recorded_number = 1.64


---

assay target: Streptavidin (Streptomyces avidinii)
assay method text: streptavidin binders on small-molecule microarray, primary screen, artefact control for SMM compound annotation, biophysical, 635/667 nm fluorescence (AID 1147);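 further: signal reflects streptavidin binding to arrayed compounds as a control protein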
test context: streptavidin binding, higher = more signal
Entries annotated with measured composite z-score
property: composite z-score

[[record]]
compound = "CC(=O)NCCCC[C@@H]1NC(=O)[C@@H]2C[C@H](C(=O)NCCCC[N+](C)(C)C)[C@H](c3ccc(O)cc3)N2C1=O"
property = "composite z-score"
recorded_number = -0.146

[[record]]
compound = "CCOC(=O)C[C@H]1[C@H](OC(=O)c2cc3ccccc3oc2=O)[C@@H](NC(=O)c2ccc(-c3ccccc3)cc2)c2cc(OCCCO)ccc2N1C(=O)c1ccccc1"
property = "composite z-score"
recorded_number = 0.509

[[record]]
compound = "O=C1O[C@@H](c2ccccc2)[C@@H](c2ccccc2)N2[C@@H](c3ccccc3OCCO)[C@]3(C(=O)Nc4ccc(C#CCCO)cc43)[C@@H](C(=O)N3CCCCCCC3)[C@H]12"
property = "composite z-score"
recorded_number = 4.08

[[record]]
compound = "CC(C)(C)OC(=O)CC[C@]1(C(=O)NCC(O)CO)N=C(c2ccc(OCCCO)cc2)O[C@H]1c1ccccc1 (some centres undefined)"
property = "composite z-score"
recorded_number = 0.291


---

assay method text: small-molecule microarray binders of probe aCHRDL2, primary screen, biochemical, biotinylated probe, 635/667 nm fluorescence (AID 1100)
test context: higher = more signal
property: composite z-score

[[record]]
molecule = "COC1OC[C@]2(C)[C@H]3C4=C(CN2C(=O)OC(C)(C)C)[C@H](C)C(CO)C(CO)C4CC[C@@H]13 (some centres undefined)"
recorded_number = 1.52

[[record]]
molecule = "CC(C)OC(=O)C=C1C[C@@H](c2ccc(C(F)(F)F)cc2)O[C@@H](c2ccc(C(F)(F)F)cc2)O1"
recorded_number = 0.492

[[record]]
molecule = "CC(CO)N1C(=O)[C@@H]2[C@H]3C(=O)OCC=C[C@H]3OC23C=CCN(Cc2ccccc2)C(=O)[C@@H]13 (some centres undefined)"
recorded_number = 0.247

[[record]]
molecule = "CCCCC=C[C@@H](NC(=O)c1ccc(-c2ccccc2)cc1)c1ccccc1"
recorded_number = 0.087


---

assay method text: adipocyte viability effects, profiling panel, cell-based, 3T3-L1 adipocytes, calcein-AM fluorescence, 48 h, basal (AID 1163)
test context: 3T3-L1 adipocytes viability, higher = more signal
Listed next: entries and their corresponding z-score.
property: z-score

[[record]]
compound = "CCOC(=O)C[C@H]1[C@H](OC(=O)Cc2ccc3c(c2)OCO3)[C@@H](NC(=O)Cc2ccc(OC)cc2)c2cc(OCCCO)ccc2N1C(=O)c1ccc2ccccc2n1"
result = 0.189

[[record]]
compound = "[N-]=[N+]=Nc1ccccc1C[C@]1(C(=O)N2CCOCC2)N=C(c2ccc(OCCCO)cc2)O[C@H]1c1ccccc1"
result = 0.854

[[record]]
compound = "O=C1O[C@H](c2ccccc2)[C@H](c2ccccc2)N2[C@H]1[C@@H](C(=O)Nc1nc3ccccc3s1)[C@]1(C(=O)Nc3ccc(C#CCCO)cc31)[C@H]2c1ccc(O)cc1"
result = 0.215

[[record]]
compound = "CCC(CC)C(O)C1C=CC2C(=O)N(c3ccccc3)C(=O)C2N1Nc1ccc(C(C)C)cc1 (stereo unspecified)"
result = 0.667

[[record]]
compound = "CC(=O)NCCCC[C@@H]1NC(=O)[C@H]2C[C@@H](C(=O)NCCCC[N+](C)(C)C)[C@@H](c3cccc(OCCO)c3)N2C1=O"
result = 0.247

[[record]]
compound = "C=CCC(OC(C)=O)[C@@H]1[C@@H](N(Cc2cc3ccccc3o2)C(=O)c2ccc(-c3ccccc3)cc2)c2cc(OCCCO)ccc2N1C(=O)c1ccc2ccccc2c1 (stereo partly specified)"
result = 1


---

Reported z-score values for the following compounds.
assay method text: MM1S cell viability effects, profiling panel, calcein-AM fluorescence, 48 h, basal (AID 1165);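 further: viability of MM1S multiple myeloma cells under basal unstimulated conditions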
test context: higher = more signal
property: z-score

[[record]]
compound = "C[C@@H]1NC(=O)[C@@]23C(=O)N[C@@H](Cc4ccccc4)C2[C@H](C)[C@@]2(C)O[C@H]2C3/C=C/C/C=C\\CNC(=O)[C@@H]2CCCN2C1=O (stereo partly drawn)"
recorded_number = 0.37

[[record]]
compound = "O=C1C2C=CC(C(O)c3ccc(Br)cc3)N(Nc3ccccc3F)C2C(=O)N1c1ccccc1 (stereo not drawn)"
recorded_number = 1.05

[[record]]
compound = "COc1ccc([Si](C)(C)[C@@H]2[C@@H](CC(=O)N(CCO)Cc3ccccc3)O[C@]3(C(=O)N(Cc4cccc(N5C(=O)c6cccc7cccc5c67)c4)c4ccccc43)[C@H]2C)cc1"
recorded_number = -1.48

[[record]]
compound = "O=C1OCC=C[C@H]2OC34C=CCN(c5ccc(Cl)cc5)C(=O)[C@H]3N(CCO)C(=O)[C@@H]4[C@@H]12 (stereo partly drawn)"
recorded_number = 0.0654

[[record]]
compound = "CCOC(=O)C1=CC[C@@H](c2ccc(OCc3ccccc3)c(OC)c2)N(S(=O)(=O)c2ccc(C)cc2)[C@H]1c1ccc(SC)cc1"
recorded_number = -0.821

[[record]]
compound = "[N-]=[N+]=NCc1ccccc1[C@H]1OC(c2ccc(OCCCO)cc2)=N[C@@]1(CCS(=O)(=O)c1ccccc1)C(=O)N1CCCCC1"
recorded_number = -0.133

[[record]]
compound = "COCCOC(=O)N1C(=O)[C@@]2(c3cc(C#CCNC(N)=O)ccc31)[C@H](C(=O)N1CCc3cc(OC)c(OC)cc3C1)[C@H]1C(=O)O[C@H](c3ccccc3)[C@H](c3ccccc3)N1[C@@H]2c1ccccc1OCCO"
recorded_number = 0.576

[[record]]
compound = "CCOC(=O)C[C@H]1[C@H](OC(=O)c2ccccc2-c2ccccc2)[C@@H](NC(=O)c2ccc(-c3ccccc3)cc2)c2cc(OCCCO)ccc2N1C(=O)c1ccc2ccccc2n1"
recorded_number = 0.402

